- tgt: T1, FITC-labeled salmon calcitonin (sCT) fragment(22–32) (salmon, fluorescein isothiocyanate (FITC) label, position not stated)
- T1 construct: salmon calcitonin, residues 22-32 (11 amino acids); numbers count on: the mature 32-residue hormone; probably FITC at the N-terminus and a C-terminal amide, neither stated for this peptide; also called FITC-sCT(22–32); sCT(22–32); source: synthetic peptide (custom-synthesized, Genscript, HPLC-purified)
- protocol: fluorescence polarisation; saturation binding format; 10 nM FITC-labeled peptide probe, purified receptor ECD at rising concentrations; 1 h at room temperature; anisotropy; mean pKD of at least three independent experiments
- details: both partners purified
measured_attribute: Kd (nM)

{"columns": ["binder", "unit_text", "recorded_value"],
 "data": [
  ["amylin receptor 1 extracellular domain, wild type (hRAMP1.24–111-(GSA)3-hCTR.34–141-H6) (receptor, N-glycosylated (sites not given)) TTACQEANYGALLRELCLTQFQVDMEAVGETLWCDWGRTIRSYRELADCTWHMAEKLGCFWPNAEVDRFFLAVHGRYFRSCPISGRAVGSAGSAGSAIEPKPFLYVVGRKKMMDAQYKCYDRMQQLPAYQGEGPYCNRTWDGWLCWDDTPAGVLSYQFCPDYFPDFDPSEKVTKYCDEKGVWFKHPENNRTWSNYTMCNAFTPEK", "nM", 81]
]}
